Tested on: HeLa Kyoto;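 further: synchronized HeLa Kyoto cells, proteins quantified by TMT10plex mass spectrometry, three biological replicates, mitosis taken 0.5 h after nocodazole release, G1/S directly after double thymidine block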
Experiment: thermal stability score vs G1/S (z-score of summed log2 fold changes over temperatures); higher = more thermally stable than in G1/S
Settings: cell cycle stage: early G1 (4.5 h after nocodazole release)
quantity.kind: thermal stability score

If you can, please state the reported thermal stability score value of MRRVTLFLNGSPKNGKVVAVYGTLSDLLSVASSKLGIKATSVYNGKGGLIDDIALIRDDDVLFVCEGEPFIDPQTDSKPPEGLLGFHTDWLTLNVGGRYFTTTRSTLVNKEPDSMLAHMFKDKGVWGNKQDHRGAFLIDRSPEYFEPILNYLRHGQLIVNDGINLLGVLEEARFFGIDSLIEHLEVAIKNSQPPEDHSPISRKEFVRFLLATPTKSELRCQGLNFSGADLSRLDLRYINFKMANLSRCNLAHANLCCANLERADLSGSVLDCANLQGVKMLCSNAEGASLKLCNFEDPSGLKANLEGANLKGVDMEGSQMTGINLRVATLKNAKLKNCNLRGATLAGTDLENCDLSGCDLQEANLRGSNVKGAIFEEMLTPLHMSQSVR [KCTD9] .
-0.393

For the next question, use this sequence.
If you can, please state the reported thermal stability score value of MAAAAGDADDEPRSGHSSSEGECAVAPEPLTDAEGLFSFADFGSALGGGGAGLSGRASGGAQSPLRYLHVLWQQDAEPRDELRCKIPAGRLRRAARPHRRLGPTGKEVHALKRLRDSANANDVETVQQLLEDGADPCAADDKGRTALHFASCNGNDQIVQLLLDHGADPNQRDGLGNTPLHLAACTNHVPVITTLLRGGARVDALDRAGRTPLHLAKSKLNILQEGHAQCLEAVRLEVKQIIHMLREYLERLGQHEQRERLDDLCTRLQMTSTKEQVDEVTDLLASFTSLSLQMQSMEKR [ANKRD54] .
0.324
